B1: Azoarcus group I ribozyme (parent)
chain: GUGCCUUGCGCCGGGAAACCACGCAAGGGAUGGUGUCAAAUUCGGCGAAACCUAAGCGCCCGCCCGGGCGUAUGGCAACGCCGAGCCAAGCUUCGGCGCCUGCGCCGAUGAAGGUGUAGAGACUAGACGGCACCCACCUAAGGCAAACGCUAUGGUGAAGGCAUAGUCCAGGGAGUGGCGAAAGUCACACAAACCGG

variants of: B1; assay: reverse-splicing fitness (ratio to wild type); higher = more active; in vitro selection; Mg2+ level not given
measurement.name: reverse-splicing fitness

mutant.code: C82G A120U A145C C150U C169U
endpoint.result: 0.00351
//
mutant.code: C82U A120U A145U C150A U176C
endpoint.result: 0.0101
//
mutant.code: C82A A111C C169A U176A
endpoint.result: 0.0171
//
mutant.code: C82U A111C A120C A145U C169A U176C
endpoint.result: 0.0103
//
mutant.code: A111C A120C A145G C150A
endpoint.result: 0.0979
//
mutant.code: A111G A120U A145U C150U U176G
endpoint.result: 0.0789
//
mutant.code: C82G A111C A120U U176C
endpoint.result: 0.0175
//
mutant.code: C82U A120U A145G C150U C169G U176C
endpoint.result: 0.00361
//
mutant.code: A120C A145C C150G U176G
endpoint.result: 0.0256
//
mutant.code: C82G A111U A120G A145G C169G U176A
endpoint.result: 0.0166
//
mutant.code: A111C A120C A145G C150G C169U
endpoint.result: 0.0264
//
mutant.code: A120G A145G C150A C169G U176C
endpoint.result: 0.0972
//
mutant.code: C82G A120G A145U C150U C169A U176C
endpoint.result: 0.0133
//
mutant.code: C82A A111U A120C A145U C150A
endpoint.result: 0.0107
//
mutant.code: C82G A120U C150G C169A U176G
endpoint.result: 0.00278
//
mutant.code: C82A A145U C150A U176C
endpoint.result: 0.0555
//
mutant.code: C82U A111G A120U A145G U176C
endpoint.result: 0.0172
//
mutant.code: C82G A111U A120C A145C C150U C169A U176A
endpoint.result: 0.0164
//
mutant.code: C82G A111C A120C C150G C169U U176A
endpoint.result: 0.00786
//
mutant.code: C82G A111C C150G U176G
endpoint.result: 0.00449
//
mutant.code: A120G A145C C150U C169G
endpoint.result: 0.213
//
mutant.code: A111C A120G A145G C150G
endpoint.result: 0.0228

All values here come from the RNAGym collection of RNA variant scans (doi:10.1093/molbev/msab373).
